Tested on: Saccharomyces cerevisiae
Assay: Growth inhibition of Saccharomyces cerevisiae FM588 expressing wild type rad52 gene at 1 to 100 uM after 24 hrs by spectrophotometry
Format: functional, organism-based
The source made the active and inactive calls. No cut-off for these calls is given here.
Allowed answers: class 1 = active, class 0 = inactive

Use these answered entries as a reference point.
// query Can you look up the reported call for CN(C)CCN1C(=O)c2cccc3cc(-c4cccc(C(F)(F)F)c4)cc(c23)C1=O for me?
// result class 1

// query Can you look up the reported call for CN(C)CCN1C(=O)c2cccc3cc(-c4ccccc4)cc(c23)C1=O for me?
// result class 1

// query Can you look up the reported call for COc1cccc(-c2cc3c4c(cccc4c2)C(=O)N(CCN(C)C)C3=O)c1 for me?
// result class 1

// query Can you look up the reported call for CN(C)CCN1C(=O)c2cccc3cc(-c4cccc([N+](=O)[O-])c4)cc(c23)C1=O for me?
// result class 1

Query compound follows.
// query Can you look up the reported call for CN(C)CCN1C(=O)c2cccc3cc(N)cc(c23)C1=O [AMONAFIDE] for me?
// result class 0

----------
Tested on: HEL
Assay: Antiproliferative activity against human HEL cells after 48 hrs by MTT assay
Assay type: functional, cell-based
IC50 listing for selected molecules.
Answer format: numeric, µM implied, no suffix.

Examples with answers:
# molecule CN(C)CCN1C(=O)c2cccc3cc(-c4cccc(O)c4)cc(c23)C1=O ; its IC50 = 7

# molecule CN(C)CCN1C(=O)c2cccc3cc(-c4ccccc4)cc(c23)C1=O ; its IC50 = 6

# molecule CN(C)CCN1C(=O)c2cccc3cc(-c4cccc([N+](=O)[O-])c4)cc(c23)C1=O ; its IC50 = 0.6

# molecule CN(C)CCN1C(=O)c2cccc3cc(-c4cccc(C(F)(F)F)c4)cc(c23)C1=O ; its IC50 = 1.6

# molecule CN(C)CCN1C(=O)c2cccc3cc(N)cc(c23)C1=O [AMONAFIDE] ; its IC50 = 3.4

More entries:
# molecule CN(C)CCN1C(=O)c2cccc3cc(-c4cccc(N)c4)cc(c23)C1=O ; its IC50 = 13.5

# molecule COc1cccc(-c2cc3c4c(cccc4c2)C(=O)N(CCN(C)C)C3=O)c1 ; its IC50 = 2.7

----------
Target: DNA topoisomerase 2-alpha (Homo sapiens)
Assay: Inhibition of human DNA topoisomerase 2alpha-mediated DNA cleavage assessed as decrease in relaxation of supercoiled pRYG plasmid at 100 uM after 30 mins by agarose gel electrophoresis
Activity calls are given as the source filed them. No cut-off for these calls is given here.
Reported property: inhibition

# compound COc1ccccc1-c1cc2c3c(cccc3c1)C(=O)N(CCN(C)C)C2=O ; its inhibition = Active

# compound COc1ccc(-c2cc3c4c(cccc4c2)C(=O)N(CCN(C)C)C3=O)cc1 ; its inhibition = Active

# compound COc1ccc(-c2ccc3cccc4c3c2C(=O)N(CCN(C)C)C4=O)cc1 ; its inhibition = inactive

# compound COc1ccccc1-c1ccc2c3c(cccc13)C(=O)N(CCN(C)C)C2=O ; its inhibition = inactive

# compound COc1ccccc1-c1ccc2cccc3c2c1C(=O)N(CCN(C)C)C3=O ; its inhibition = inactive

# compound CN(C)CCN1C(=O)c2cccc3cc(-c4cccc(O)c4)cc(c23)C1=O ; its inhibition = Active

More entries:
# compound CN(C)CCN1C(=O)c2cccc3cc(-c4cccc(N)c4)cc(c23)C1=O ; its inhibition = inactive

# compound COc1cccc(-c2ccc3c4c(cccc24)C(=O)N(CCN(C)C)C3=O)c1 ; its inhibition = Active
